Provenance of the data: the Deep4Chem optical property database

# PROTOCOL TEXT: solvent given as SMILES
# CONDITIONS USED: in Cc1ccccc1
EXPERIMENTAL ENDPOINT: fluorescence lifetime (ns)
Provide only the numeric value, understood in ns.

Exercise: If you can, please state the reported fluorescence lifetime value of `O=C1c2ccc(-c3ccc(N(c4ccc(-c5ccccc5)cc4)c4ccc(-c5ccccc5)cc4)cc3)cc2C(=O)c2ccc(-c3ccc(N(c4ccc(-c5ccccc5)cc4)c4ccc(-c5ccccc5)cc4)cc3)cc21` .
Key: 11.2

Exercise: If you can, please state the reported fluorescence lifetime value of `CC(C)(C)c1ccc2c(c1)c1cc(C(C)(C)C)ccc1n2-c1ccc(S(=O)(=O)c2ccc(-n3c4ccc(C(C)(C)C)cc4c4cc(C(C)(C)C)ccc43)cc2)cc1` .
Key: 5.3

Exercise: If you can, please state the reported fluorescence lifetime value of `COc1ccc(N(c2ccc(OC)cc2)c2ccc(-c3ccc4c(c3)C(=O)c3ccccc3C4=O)cc2)cc1` .
Key: 1.09

Exercise: If you can, please state the reported fluorescence lifetime value of `N#CC=C(c1ccc(N2c3ccccc3Oc3ccccc32)cc1)c1ccc(N2c3ccccc3Oc3ccccc32)cc1` .
Key: 5.84

Exercise: If you can, please state the reported fluorescence lifetime value of `CC1=[N+]2C(=C(c3ccc(N4CCOCC4)cc3)c3ccc(C)n3[B-]2(F)F)C=C1` .
Key: 3.12

Exercise: If you can, please state the reported fluorescence lifetime value of `c1ccc(-c2cc(-c3ccccc3)cc(-c3ccc4c(c3)C3(c5cc(-c6cc(-c7ccccc7)cc(-c7ccccc7)c6)ccc5-4)c4ccccc4-c4c3c3c5ccccc5ccc3c3ccccc43)c2)cc1` .
Key: 3.07

---

# PROTOCOL TEXT: solvent given as SMILES
# CONDITIONS USED: in CC(C)O
Lab note: cut-off is 2 ns. Strictly less in fluorescence lifetime is Criterion met. Exactly 2 ns or more is Criterion not met.

Exercise: Threshold test, fluorescence lifetime < 2 ns: `N#Cc1ccc2cc[nH]c2c1`
Key: Criterion not met

Exercise: Threshold test, fluorescence lifetime < 2 ns: `O=C([O-])c1ccccc1-c1c2ccc(=O)cc-2oc2cc([O-])ccc12`
Key: Criterion not met

Exercise: Threshold test, fluorescence lifetime < 2 ns: COC(=O)C(Cc1ccc2oc(-c3ccc4c(c3)c3ccccc3n4-c3ccccc3)nc2c1)NC(=O)OC(C)(C)C (stereo not given)
Key: Criterion met

Exercise: Threshold test, fluorescence lifetime < 2 ns: `CCN(CC)c1ccc(OC)c(C=O)c1`
Key: Criterion met

Exercise: Threshold test, fluorescence lifetime < 2 ns: COC(=O)C(Cc1ccc2oc(-c3ccc(N(C)C)cc3)nc2c1)NC(=O)OC(C)(C)C (stereo not given)
Key: Criterion met

Exercise: Threshold test, fluorescence lifetime < 2 ns: O=[N+]([O-])c1ccc(F)cc1C1CC(c2cccc3ccccc23)=NN1c1ccccc1 (stereo not given)
Key: Criterion not met

Exercise: Threshold test, fluorescence lifetime < 2 ns: `O=C1c2ccc3c4ccc5c6c(ccc(c7ccc(c2c37)C(=O)N1c1ccncc1)c64)C(=O)N(c1ccncc1)C5=O`
Key: Criterion met

Exercise: Threshold test, fluorescence lifetime < 2 ns: `CCNc1ccc2c(C(F)(F)F)cc(=O)oc2c1`
Key: Criterion not met

Exercise: Threshold test, fluorescence lifetime < 2 ns: CN(CC(O)c1cccc(O)c1)c1ccc([N+](=O)[O-])c(C2CC(c3cccc4ccccc34)=NN2c2ccccc2)c1 (stereo not given)
Key: Criterion not met

Exercise: Threshold test, fluorescence lifetime < 2 ns: `COc1ccccc1-c1c(-c2ccccc2O)nc(-c2ccc(C(F)(F)F)cc2)n1-c1ccc(C)cc1`
Key: Criterion met

Exercise: Threshold test, fluorescence lifetime < 2 ns: `COc1ccc2cc([C@H](C)C(=O)O)ccc2c1`
Key: Criterion not met

Exercise: Threshold test, fluorescence lifetime < 2 ns: `NNC(=O)NNN1C(=O)c2cc(S(=O)(=O)[O-])cc3c(N)c(S(=O)(=O)[O-])cc(c23)C1=O`
Key: Criterion not met

Exercise: Threshold test, fluorescence lifetime < 2 ns: `O=C1c2ccccc2-c2ccc(Nc3nc(Cl)nc(Cl)n3)c3cccc1c23`
Key: Criterion not met

Exercise: Threshold test, fluorescence lifetime < 2 ns: `COc1cc(OC)cc(-c2ccc(-c3ccc(C#N)s3)s2)c1`
Key: Criterion met

Exercise: Threshold test, fluorescence lifetime < 2 ns: NS(=O)(=O)c1ccc(N2N=C(c3ccc(O)cc3)CC2c2ccccc2)cc1 (stereo not given)
Key: Criterion met

Exercise: Threshold test, fluorescence lifetime < 2 ns: `CN(C)c1ccc(/C=C/C=C2\CC/C(=C\C=C\c3ccc(N(C)C)cc3)C2=O)cc1`
Key: Criterion met

Exercise: Threshold test, fluorescence lifetime < 2 ns: `N#Cc1cccc2cc[nH]c12`
Key: Criterion not met

Exercise: Threshold test, fluorescence lifetime < 2 ns: `COc1ncccc1B(O)O`
Key: Criterion met

---

# PROTOCOL TEXT: solvent given as SMILES
# CONDITIONS USED: in ClCCl
EXPERIMENTAL ENDPOINT: fluorescence lifetime (ns)
Provide only the numeric value, understood in ns.

Exercise: If you can, please state the reported fluorescence lifetime value of `CCN(CC)c1ccc2cc(-c3nc4ccccc4n3-c3ccccc3)c(=O)oc2c1` .
Key: 13.2

Exercise: If you can, please state the reported fluorescence lifetime value of `CCOC(=O)COc1ccc(/C=C/C2=C3c4ccccc4C(c4[nH]c(C)cc4C)=[N+]3[B-](F)(F)n3c(/C=C/c4ccc(OCC(=O)OCC)cc4)cc(C)c32)cc1` .
Key: 4.82

Exercise: If you can, please state the reported fluorescence lifetime value of `O=S1(=O)c2ccccc2C2(c3cc(-c4ccc(-n5c6ccccc6c6ccccc65)cc4)ccc3-c3ccc(-c4ccc(-n5c6ccccc6c6ccccc65)cc4)cc32)c2ccccc21` .
Key: 0.9

Exercise: If you can, please state the reported fluorescence lifetime value of `c1ccc(N(c2ccccc2)c2ccc(-c3ccc4c(c3)C3(c5cc(-c6ccc(N(c7ccccc7)c7ccccc7)cc6)ccc5O4)c4ccccc4-c4ccccc43)cc2)cc1` .
Key: 1.2

Exercise: If you can, please state the reported fluorescence lifetime value of `CCCCn1c(-c2ccc(-c3nnc(-c4cccs4)o3)cc2)nc2c3ccccc3c3ccccc3c21` .
Key: 1.76

Exercise: If you can, please state the reported fluorescence lifetime value of `COc1ccc(/C=C/C2=C3CCc4ccccc4C3=[O+][B-](F)(F)O2)cc1` .
Key: 0.24

Exercise: If you can, please state the reported fluorescence lifetime value of `N#Cc1ccc(-n2cccc2)cc1` .
Key: 3.1

Exercise: If you can, please state the reported fluorescence lifetime value of `Cc1c(C2=[N+]3C(=Cc4c(C)c5ccccc5n4[B-]3(F)F)c3ccccc32)[nH]c2ccccc12` .
Key: 1.22

Exercise: If you can, please state the reported fluorescence lifetime value of `CCN(CC)c1ccc2cc(-c3nc4c5ccccc5c5ccccc5c4n3-c3ccc(C(C)(C)C)cc3)c(=O)oc2c1` .
Key: 12.6

Exercise: If you can, please state the reported fluorescence lifetime value of `Cc1ccc2ccc3c(C)ccc4ccc1c2c43` .
Key: 37.6

Exercise: If you can, please state the reported fluorescence lifetime value of `COc1ccc2c(=O)c3c([nH]c2c1)-c1ccccc1NC3(C)C` .
Key: 9.46

Exercise: If you can, please state the reported fluorescence lifetime value of `CCCCc1cc(CCCC)c2ccc3c(CCCC)cc(CCCC)c4ccc1c2c43` .
Key: 56.7

Exercise: If you can, please state the reported fluorescence lifetime value of `C(C#Cc1ccc2ccc3cccc4ccc1c2c34)#Cc1cccc2ccccc12` .
Key: 1.1

Exercise: If you can, please state the reported fluorescence lifetime value of `CC1(C)C(/C=C/C2=C(Cl)C(=C/C=C3/N(CCCCS(=O)(=O)[O-])c4ccc5ccccc5c4C3(C)C)/CCC2)=[N+](CCCCS(=O)(=O)[O-])c2ccc3ccccc3c21` .
Key: 0.59

Exercise: If you can, please state the reported fluorescence lifetime value of `COc1ccc(-c2c3cc4ccccc4cc3c(-c3ccc(OC)cc3)c3cc4sc(C)cc4cc23)cc1` .
Key: 15.4

Exercise: If you can, please state the reported fluorescence lifetime value of `CCN(CC)c1ccc2cc(C#N)/c(=N\C(=O)C(C)C)oc2c1` .
Key: 3.1

Exercise: If you can, please state the reported fluorescence lifetime value of `CCOc1cc2c(cc1/C=C/C1=CC(=C(C#N)C#N)CC(C)(C)C1)c1ccccc1n2CC` .
Key: 6.24

Exercise: If you can, please state the reported fluorescence lifetime value of `CCCCCCC1(CCCCCC)c2ccccc2-c2ccc(-c3ccc(-c4cc(-c5ccccn5)nc(-c5ccccn5)c4)cc3)cc21` .
Key: 0.77

Exercise: If you can, please state the reported fluorescence lifetime value of `Nc1ccc2c(c1)C(=O)N(C13C[C@H]4C[C@@H](C1)C[C@@H](C3)C4)C2=O` .
Key: 24.6

Exercise: If you can, please state the reported fluorescence lifetime value of `CC(C)(C)c1ccc2c(c1)[nH]c1c3[nH]c4cc(C(C)(C)C)ccc4c3c3nsnc3c21` .
Key: 2.61

Exercise: If you can, please state the reported fluorescence lifetime value of `CCCCn1c2c(-c3ccc(N(c4ccccc4)c4ccccc4)cc3)cc(C#N)cc2c2cc(C#N)cc(-c3ccc(N(c4ccccc4)c4ccccc4)cc3)c21` .
Key: 2.29

Exercise: If you can, please state the reported fluorescence lifetime value of `CCN(CC)c1ccc2c(-c3ccccc3C(=O)O)c3c([o+]c2c1)/C(=C/Nc1ccccc1)CCC3` .
Key: 5.8

Exercise: If you can, please state the reported fluorescence lifetime value of `c1ccc2c(c1)[nH]c1c3[nH]c4ccccc4c3c3nsnc3c21` .
Key: 1.27

Exercise: If you can, please state the reported fluorescence lifetime value of `Fc1ccc(N(c2ccccc2)c2ccc3ccc4c(N(c5ccccc5)c5ccc(F)cc5)ccc5ccc2c3c54)cc1` .
Key: 5.5

Exercise: If you can, please state the reported fluorescence lifetime value of `CC(C)c1ccc2ccc3c(C(C)C)ccc4ccc1c2c43` .
Key: 40.3
